Could you please report measured GI50 for the items listed next?
Test system: CAKI-1
assay_explanation: NCI tumour cell line growth inhibition, 48 h
Active and inactive are the calls of the source. Rule as the data show it: active = GI50 up to about 1.1 µM and inactive = higher.

Look up GI50 of C=C1C(=O)O[C@H]2C1[C@H](OC(=O)/C(C)=C\COC(C)=O)C[C@]1(CO1)[C@@H]1[C@H](O)[C@H]3O[C@@]3(C)[C@@H]12 (some centres undefined) and report it.
14.3 µM (inactive)

Please look at this molecule and report its GI50: COc1cc(OC)nc(-n2c(N)c(C#N)c3ccc([N+](=O)[O-])cc3c2=O)n1
> 100 µM (inactive)

Item C1CCC(CC2CCC(NC3=NCCO3)CC2)CC1 (centres undefined) : provide GI50
24.5 µM (inactive)

For Nc1ccc(-c2ncc3cc(-c4cccc(-c5cc6cnc(-c7ccc(N)cc7)nc6c6ccccc56)c4)c4ccccc4c3n2)cc1 , write its GI50.
> 100 µM (inactive)

Reference source: ChEMBL document CHEMBL1201862
